# measured_target: Beta-lactamase (Enterobacter cloacae) (UniProt P05364)
# assay_comment: Compound was tested for the inhibitory activity against Enterobacter cloacae P99 serine beta-lactamase
Items are presented alongside their recorded ID50.
Answer in µM, number only, no unit symbol.

Examples with answers:
stdin: Please state recorded ID50 (tested on Beta-lactamase (Enterobacter cloacae) (UniProt P05364)) of O=C(O)CC(NP(=O)(O)CNC(=O)OCc1ccccc1)c1ccccc1 (stereo unspecified)
stdout: 0.87

stdin: Please state recorded ID50 (tested on Beta-lactamase (Enterobacter cloacae) (UniProt P05364)) of `O=C(O)CCNP(=O)(O)CNC(=O)OCc1ccccc1`
stdout: 0.87

stdin: Please state recorded ID50 (tested on Beta-lactamase (Enterobacter cloacae) (UniProt P05364)) of `O=C(NCP(=O)(O)N[C@@H](Cc1ccccc1)C(=O)O)OCc1ccccc1`
stdout: 0.75

stdin: Please state recorded ID50 (tested on Beta-lactamase (Enterobacter cloacae) (UniProt P05364)) of `O=C(O)[C@H]1/C(=C/CO)O[C@@H]2CC(=O)N21`
stdout: 310

stdin: Please state recorded ID50 (tested on Beta-lactamase (Enterobacter cloacae) (UniProt P05364)) of COP(=O)(CNC(=O)OCc1ccccc1)N1CCC[C@@H]1C(=O)O (stereo partly specified)
stdout: 67

---
stdin: Please state recorded ID50 (tested on Beta-lactamase (Enterobacter cloacae) (UniProt P05364)) of `O=C(NCP(=O)(O)N[C@@H](C(=O)O)c1ccccc1)OCc1ccccc1`
stdout: 4.16

stdin: Please state recorded ID50 (tested on Beta-lactamase (Enterobacter cloacae) (UniProt P05364)) of `O=C(NCP(=O)(O)N[C@H](Cc1ccccc1)C(=O)O)OCc1ccccc1`
stdout: 3.8

stdin: Please state recorded ID50 (tested on Beta-lactamase (Enterobacter cloacae) (UniProt P05364)) of COP(=O)(CNC(=O)OCc1ccccc1)N1CCC[C@H]1C(=O)O (stereo partly specified)
stdout: 54

====

Items are presented alongside their recorded ID50.
# measured_target: SHV-5 extended spectrum beta-lactamase (Escherichia coli) (UniProt Q6REX6)
# assay_comment: Compound was tested for the inhibitory activity against Escherichia coli SHV-5 serine beta-lactamase
Answer in µM, number only, no unit symbol.

stdin: Value lookup for ID50; key = O=C(O)CC(NP(=O)(O)CNC(=O)OCc1ccccc1)c1ccccc1 (configuration not stated)
stdout: 63

stdin: Value lookup for ID50; key = `O=C(O)[C@H]1/C(=C/CO)O[C@@H]2CC(=O)N21`
stdout: 0.013

---
stdin: Value lookup for ID50; key = `O=C(O)CCNP(=O)(O)CNC(=O)OCc1ccccc1`
stdout: 33

====

# measured_target: Beta-lactamase (Enterobacter cloacae) (UniProt P05364)
# assay_comment: Compound was tested for the inhibitory activity against Enterobacter cloacae P99 serine beta-lactamase
readout_type: ID50

stdin: Value lookup for ID50; key = `O=C(O)CNCP(=O)(O)CNC(=O)OCc1ccccc1`
stdout: > 100 µM

---
stdin: Value lookup for ID50; key = COP(=O)(CNC(=O)OCc1ccccc1)N1CSC(C)(C)[C@@H]1C(=O)O (stereo partly drawn)
stdout: > 100 µM

stdin: Value lookup for ID50; key = `O=C(O)CNP(=O)(O)CNC(=O)OCc1ccccc1`
stdout: 2.29 µg/mL

All values here come from ChEMBL document CHEMBL1127929.
